measuredTarget: TrkB (Homo sapiens (Human), UniProt Q16620 32-430)
Sequence (Q16620 32-430 limits assumed): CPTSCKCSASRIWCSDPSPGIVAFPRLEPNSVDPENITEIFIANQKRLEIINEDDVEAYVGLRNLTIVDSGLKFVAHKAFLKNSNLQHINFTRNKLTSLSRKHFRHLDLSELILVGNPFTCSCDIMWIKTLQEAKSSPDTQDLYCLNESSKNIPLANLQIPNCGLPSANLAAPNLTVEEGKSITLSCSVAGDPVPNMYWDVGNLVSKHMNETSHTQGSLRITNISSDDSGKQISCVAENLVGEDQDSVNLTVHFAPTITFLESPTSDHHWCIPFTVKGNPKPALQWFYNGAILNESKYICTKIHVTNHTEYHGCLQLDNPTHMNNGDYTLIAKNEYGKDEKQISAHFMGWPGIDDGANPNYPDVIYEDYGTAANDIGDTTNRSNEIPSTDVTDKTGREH
protocolDetails: koff of Fab at 25 C; T1/2=Log2/koff
valueKind: T1/2 (min)
// note: answer is a bare numeric in min

• 4B12-15 (Fab, V domains shown, Fab) VH: QVQLVQSGAEVKKPGASVKVSCKASGYTFTNYDIIWVRQAPGQGLEWMGYIAPYNGRREYNEKFKGRVTMTRDTSTSTVYMELSSLRSEDTAVYYCARLLKYRRFRYYAIDYWGQGTTVTVSS VL: DIQMTQSPSSLSASVGDRVTITCRASEPVYSNVAWYQQKPGKAPKLLIYAASNLQSGVPSRFSGSGSGTDYTFTISSLQPEDIATYYCQHFWGSPFTFGQGTKLEIK = 2.7
• A6-10 (Fab, V domains shown, Fab) VH: QVQLVQSGAEVKKPGASVKVSCKASGYTFTNYDIIWVRQAPGQGLEWMGYINPYNRGREYNEKFKGRVTMTRDTSTSTVYMELSSLRSEDTAVYYCARLLKYRRFRYYAIDYWGQGTTVTVSS VL: DIQMTQSPSSLSASVGDRVTITCHASENVYSNLAWYQQKPGKAPKLLIYAASNLQSGVPSRFSGSGSGTDYTFTISSLQPEDIATYYCQHFWGSPFTFGQGTKLEIK = 4

Please examine the following record next.
Kindly note the recorded T1/2 for 3-G5 (Fab, V domains shown, Fab) VH: QVQLVQSGAEVKKPGASVKVSCKASGYTFTNYVILWVRQAPGQGLEWMGYINPYNDGTKYNEKFKGRVTMTRDTSTSTVYMELSSLRSEDTAVYYCARLLKYRRFSYYAIDYWGQGTTVTVSS VL: DIQMTQSPSSLSASVGDRVTITCRASENVYSNLAWYQQKPGKAPKLLIYAASNLQSGVPSRFSGSGSGTDFTFTISSLQPEDIATYYCQNFWYSPFTFGQGTKLEIK , which is 1.21
